test system: M. catarrhalis ATCC 25240; experiment: Whole cell antimicrobial screen, MIC; assay type: cell-based; conditions: Moraxella catarrhalis, ATCC25240
MIC values, listed per item
readout name: MIC (µg/mL)

record_smiles=CC[C@H](C)[C@H](N)C(=O)NS(=O)(=O)OC[C@H]1O[C@@H](CCn2nnc(-c3ccc(-c4ccccc4C)c(C)c3)n2)[C@H](O)[C@@H]1O censor_symbol== reported_measurement=50
record_smiles=CC[C@H](C)[C@H](N)C(=O)NS(=O)(=O)OC[C@H]1O[C@@H](CCn2nnc(-c3ccc(Oc4ccccc4)cc3)n2)[C@H](O)[C@@H]1O censor_symbol== reported_measurement=25
record_smiles=CC[C@H](C)[C@H](N)C(=O)NS(=O)(=O)OC[C@H]1O[C@@H](CCn2nnc(-c3ccc(-c4ccccc4)cc3C)n2)[C@H](O)[C@@H]1O censor_symbol=< reported_measurement=50

---

tested on: S. aureus ATCC 14154; assay: Whole cell antimicrobial screen, MIC; type: cell-based; details: Staphylococcus aureus, ATCC14154
readout name: MIC (µg/mL)

record_smiles=CC[C@H](C)[C@H](N)C(=O)NS(=O)(=O)OC[C@H]1O[C@@H](CCn2nnc(-c3ccc(Oc4ccccc4)cc3)n2)[C@H](O)[C@@H]1O readout_name=MIC censor_symbol== reported_measurement=25
record_smiles=CC[C@H](C)[C@H](N)C(=O)NS(=O)(=O)OC[C@H]1O[C@@H](CCn2nnc(CCCOc3ccccc3)n2)[C@H](O)[C@@H]1O readout_name=MIC censor_symbol=> reported_measurement=500
record_smiles=CC[C@H](C)[C@H](N)C(=O)NS(=O)(=O)OC[C@H]1O[C@@H](CCn2nnc(-c3ccc(Oc4ccc([N+](=O)[O-])s4)cc3)n2)[C@H](O)[C@@H]1O readout_name=MIC censor_symbol== reported_measurement=10
record_smiles=CC[C@H](C)[C@H](N)C(=O)NS(=O)(=O)OC[C@H]1O[C@@H](CCn2nnc(-c3ccc(C#Cc4cccc([N+](=O)[O-])c4)cc3)n2)[C@H](O)[C@@H]1O readout_name=MIC censor_symbol== reported_measurement=50
record_smiles=CC[C@H](C)[C@H](N)C(=O)NS(=O)(=O)OC[C@H]1O[C@@H](CCn2nnc(-c3ccc(OCc4ccc([N+](=O)[O-])s4)cc3)n2)[C@H](O)[C@@H]1O readout_name=MIC censor_symbol== reported_measurement=25
record_smiles=CC[C@H](C)[C@H](N)C(=O)NS(=O)(=O)OC[C@H]1O[C@@H](CCn2nnc(-c3ccc(Oc4ccc(Oc5ccccc5)cc4)cc3)n2)[C@H](O)[C@@H]1O readout_name=MIC censor_symbol== reported_measurement=10

---

biological target: E. Coli. IleRS (isoleucyl-tRNA synthetase) (Escherichia coli, UniProt P00956); assay: Inhibition of isoleucyl-tRNA synthetase (aminoacylation of tRNA with [3H]isoleucine); assay type: biochemical; settings: E. coli enzyme; irreversible inhibitors: values are 50% of the active enzyme concentration; read-out: IC50 E.Coli. IleRS
Sequence (P00956 whole entry): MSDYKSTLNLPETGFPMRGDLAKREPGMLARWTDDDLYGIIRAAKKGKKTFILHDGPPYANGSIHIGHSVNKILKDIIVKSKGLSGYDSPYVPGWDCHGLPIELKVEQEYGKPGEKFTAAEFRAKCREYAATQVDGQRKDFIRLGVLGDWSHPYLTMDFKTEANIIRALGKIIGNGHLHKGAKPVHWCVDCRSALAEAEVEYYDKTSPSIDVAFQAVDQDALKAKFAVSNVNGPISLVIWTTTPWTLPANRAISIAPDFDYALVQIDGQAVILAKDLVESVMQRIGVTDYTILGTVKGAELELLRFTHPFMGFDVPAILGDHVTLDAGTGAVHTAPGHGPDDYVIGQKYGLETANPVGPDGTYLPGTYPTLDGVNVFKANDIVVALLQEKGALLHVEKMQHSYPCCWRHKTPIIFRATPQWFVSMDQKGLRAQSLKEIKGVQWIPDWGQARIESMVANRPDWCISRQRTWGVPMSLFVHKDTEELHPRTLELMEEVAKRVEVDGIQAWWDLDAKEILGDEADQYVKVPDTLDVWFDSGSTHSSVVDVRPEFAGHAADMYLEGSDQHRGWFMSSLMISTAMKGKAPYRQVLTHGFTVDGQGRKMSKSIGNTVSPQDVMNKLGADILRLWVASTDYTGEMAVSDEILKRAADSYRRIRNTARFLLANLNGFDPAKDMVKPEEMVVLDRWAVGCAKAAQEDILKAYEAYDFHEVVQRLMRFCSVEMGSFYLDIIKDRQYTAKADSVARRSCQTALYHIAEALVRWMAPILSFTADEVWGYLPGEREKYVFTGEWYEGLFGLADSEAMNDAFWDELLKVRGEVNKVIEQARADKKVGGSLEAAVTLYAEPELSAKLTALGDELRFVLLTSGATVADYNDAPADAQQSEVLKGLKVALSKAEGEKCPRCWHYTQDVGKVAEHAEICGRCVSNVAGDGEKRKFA
readout name: IC50 (nM)

record_smiles=CC[C@H](C)[C@H](N)C(=O)NS(=O)(=O)OC[C@H]1O[C@@H](CCn2nnc(-c3ccc(Oc4ccc([N+](=O)[O-])s4)cc3)n2)[C@H](O)[C@@H]1O study_target="E. Coli. IleRS (isoleucyl-tRNA synthetase) (Escherichia coli, UniProt P00956)" readout_name=IC50 reported_measurement=1.3
record_smiles=CC[C@H](C)[C@H](N)C(=O)NS(=O)(=O)OC[C@H]1O[C@@H](CCn2nnc(-c3ccc(C#Cc4ccc([N+](=O)[O-])o4)cc3)n2)[C@H](O)[C@@H]1O study_target="E. Coli. IleRS (isoleucyl-tRNA synthetase) (Escherichia coli, UniProt P00956)" readout_name=IC50 reported_measurement=1
record_smiles=CC[C@H](C)[C@H](N)C(=O)NS(=O)(=O)OC[C@H]1O[C@@H](CCn2nnc(-c3ccc(C=C(Br)Br)cc3)n2)[C@H](O)[C@@H]1O study_target="E. Coli. IleRS (isoleucyl-tRNA synthetase) (Escherichia coli, UniProt P00956)" readout_name=IC50 reported_measurement=11

Values compiled from patent US5726195A.
